target: human IL-6 (human, UniProt P05231 30-212); test: SPR (Biacore), purified antibody on Protein A chip, IL-6 flowed, 37 C
Sequence (P05231 30-212 limits assumed): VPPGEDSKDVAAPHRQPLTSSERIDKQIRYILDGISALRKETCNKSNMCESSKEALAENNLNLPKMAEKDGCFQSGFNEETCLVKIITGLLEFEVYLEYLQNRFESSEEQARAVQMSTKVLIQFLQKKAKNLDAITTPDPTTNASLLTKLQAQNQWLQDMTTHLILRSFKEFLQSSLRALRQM
quantity: koff (s⁻¹)
Use s⁻¹ as the unit, but write only the number.

Prompt: Reported koff, binder anti-IL-6 antibody, heavy chain T65Q, G66D / light chain M32L, M50D, N52S, M88Q (antibody, human IgG1, V domains shown, Human IgG1) VH: EVQLVESGGGLVQPGGSLRLSCAASGFTFSPFAMSWVRQAPGKGLEWVAKISPGGSWTYYSDTVQDRFTFSLDTSKSTAYLQMNSLRAEDTAVYYCARQLWGYYALDIWGQGTLVTVSS VL: DIQLTQSPSSLSASVGDRVTITCSASISVSYLYWYQQKPGKAPKLLIYDDSSLASGVPSRFSGSGSGTDFTLTISSLQPEDFATYYCQQWSGYPYTFGQGTKVEIK : ____
Completion: 0.00038

Prompt: Same again, this time with anti-IL-6 antibody, heavy chain T63E, G66D / light chain M32L, M50D, N52S, M88Q (antibody, human IgG1, V domains shown, Human IgG1) VH: EVQLVESGGGLVQPGGSLRLSCAASGFTFSPFAMSWVRQAPGKGLEWVAKISPGGSWTYYSDEVTDRFTFSLDTSKSTAYLQMNSLRAEDTAVYYCARQLWGYYALDIWGQGTLVTVSS VL: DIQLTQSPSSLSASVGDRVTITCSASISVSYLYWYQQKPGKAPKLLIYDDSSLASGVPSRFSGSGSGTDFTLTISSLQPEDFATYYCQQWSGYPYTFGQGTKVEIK
Completion: 0.000327

Prompt: Same again, this time with anti-IL-6 antibody, heavy chain WT / light chain M32L, M50D, N52S, M88Q (antibody, human IgG1, V domains shown, Human IgG1) VH: EVQLVESGGGLVQPGGSLRLSCAASGFTFSPFAMSWVRQAPGKGLEWVAKISPGGSWTYYSDTVTGRFTFSLDTSKSTAYLQMNSLRAEDTAVYYCARQLWGYYALDIWGQGTLVTVSS VL: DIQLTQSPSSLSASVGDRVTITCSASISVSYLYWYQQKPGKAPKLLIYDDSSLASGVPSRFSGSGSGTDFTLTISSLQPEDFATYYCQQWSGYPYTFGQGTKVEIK
Completion: 0.000319

Prompt: Same again, this time with anti-IL-6 antibody, heavy chain G66D / light chain M32L, M50D, N52S, M88Q (antibody, human IgG1, V domains shown, Human IgG1) VH: EVQLVESGGGLVQPGGSLRLSCAASGFTFSPFAMSWVRQAPGKGLEWVAKISPGGSWTYYSDTVTDRFTFSLDTSKSTAYLQMNSLRAEDTAVYYCARQLWGYYALDIWGQGTLVTVSS VL: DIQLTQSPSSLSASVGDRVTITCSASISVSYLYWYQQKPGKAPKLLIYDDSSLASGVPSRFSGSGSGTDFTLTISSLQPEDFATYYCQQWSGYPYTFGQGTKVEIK
Completion: 0.000412

Prompt: Same again, this time with anti-IL-6 antibody, heavy chain T63Q, G66D / light chain M32L, M50D, N52S, M88Q (antibody, human IgG1, V domains shown, Human IgG1) VH: EVQLVESGGGLVQPGGSLRLSCAASGFTFSPFAMSWVRQAPGKGLEWVAKISPGGSWTYYSDQVTDRFTFSLDTSKSTAYLQMNSLRAEDTAVYYCARQLWGYYALDIWGQGTLVTVSS VL: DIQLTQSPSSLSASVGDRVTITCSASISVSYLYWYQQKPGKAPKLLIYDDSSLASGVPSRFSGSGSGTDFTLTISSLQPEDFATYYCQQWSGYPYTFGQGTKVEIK
Completion: 0.000341

Prompt: Same again, this time with anti-IL-6 antibody, heavy chain T63K, G66D / light chain M32L, M50D, N52S, M88Q (antibody, human IgG1, V domains shown, Human IgG1) VH: EVQLVESGGGLVQPGGSLRLSCAASGFTFSPFAMSWVRQAPGKGLEWVAKISPGGSWTYYSDKVTDRFTFSLDTSKSTAYLQMNSLRAEDTAVYYCARQLWGYYALDIWGQGTLVTVSS VL: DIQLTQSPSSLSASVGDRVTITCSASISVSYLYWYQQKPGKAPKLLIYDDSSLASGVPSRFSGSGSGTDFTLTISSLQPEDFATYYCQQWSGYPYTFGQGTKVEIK
Completion: 0.000401

Prompt: Same again, this time with anti-IL-6 antibody, heavy chain S35H, G66D / light chain M32L, M50D, N52S, M88Q (antibody, human IgG1, V domains shown, Human IgG1) VH: EVQLVESGGGLVQPGGSLRLSCAASGFTFSPFAMHWVRQAPGKGLEWVAKISPGGSWTYYSDTVTDRFTFSLDTSKSTAYLQMNSLRAEDTAVYYCARQLWGYYALDIWGQGTLVTVSS VL: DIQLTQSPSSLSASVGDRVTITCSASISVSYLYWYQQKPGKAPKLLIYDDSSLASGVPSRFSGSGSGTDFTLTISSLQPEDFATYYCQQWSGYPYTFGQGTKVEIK
Completion: 0.000254
